Assay: The drug is tested on Z-010 corresponding to metagenome with ENA study accession number: PRJEB37062 and ENA sample accession number: ERS12561810 for biotransformation under anaerobic condition. The drug concentrations were measured over 9 timepoints collected between 0 and 24 hours of incubation by liquid-chromatography-coupled mass spectrometry (LC–MS); note: call rule not given here
Conditions: 2 µM
OBSERVED PROPERTY: Bacterial Biotransformation

[ask] So what does the record say about Bacterial Biotransformation for CC(C)OC(=O)C(C)(C)Oc1ccc(C(=O)c2ccc(Cl)cc2)cc1 [FENOFIBRATE] ?
[reply] Compound metabolized

[ask] Consider the compound shown here: `CCCCC(=O)N(Cc1ccc(-c2ccccc2-c2nnn[nH]2)cc1)[C@H](C(=O)O)C(C)C` What is its recorded Bacterial Biotransformation?
[reply] Compound NOT metabolized

[ask] Suppose we examine the compound CNC(=C[N+](=O)[O-])NCCSCc1ccc(CN(C)C)o1 [RANITIDINE] ; what Bacterial Biotransformation value has been reported?
[reply] Compound metabolized

[ask] State the recorded Bacterial Biotransformation for this entry: CCCCCOC(=O)Nc1nc(=O)n([C@@H]2O[C@H](C)[C@@H](O)[C@H]2O)cc1F [CAPECITABINE]
[reply] Compound metabolized

[ask] Can you look up the measured Bacterial Biotransformation of Cc1ccnc2c1NC(=O)c1cccnc1N2C1CC1 [NEVIRAPINE] for me?
[reply] Compound NOT metabolized

[ask] Which measured Bacterial Biotransformation value corresponds to OC(CCN1CCCCC1)(c1ccccc1)C1CCCCC1 (centres undefined) [TRIHEXYPHENIDYL] ?
[reply] Compound metabolized

[ask] For the compound CCN(CC)CC#CCOC(=O)C(O)(c1ccccc1)C1CCCCC1.Cl (centres undefined) [OXYBUTYNIN CHLORIDE] , what Bacterial Biotransformation is on record?
[reply] Compound metabolized

[ask] I have this compound here, COc1c(C)c2c(c(O)c1C/C=C(\C)CCC(=O)OCCN1CCOCC1)C(=O)OC2 [MYCOPHENOLATE MOFETIL] , and I need its recorded Bacterial Biotransformation.
[reply] Compound metabolized

[ask] Consider the compound Cc1ccc(S(=O)(=O)NC(=O)NN2CC3CCCC3C2)cc1 (centres undefined) [GLICLAZIDE] and give its measured Bacterial Biotransformation.
[reply] Compound metabolized

[ask] I am curious: what Bacterial Biotransformation value has been reported for Cc1ccc(-c2nc3ccc(C)cn3c2CC(=O)N(C)C)cc1 [ZOLPIDEM] ?
[reply] Compound metabolized

New cases:
[ask] I am curious: what Bacterial Biotransformation value has been reported for NC(=O)N1c2ccccc2CC(=O)c2ccccc21 [OXCARBAZEPINE] ?
[reply] Compound metabolized

[ask] Using the record for CC(C)c1c(C(=O)Nc2ccccc2)c(-c2ccccc2)c(-c2ccc(F)cc2)n1CC[C@@H](O)C[C@@H](O)CC(=O)O [ATORVASTATIN] , report its Bacterial Biotransformation.
[reply] Compound metabolized

[ask] I am curious: what Bacterial Biotransformation value has been reported for Clc1ccc(Cn2c(CN3CCCC3)nc3ccccc32)cc1 [CLEMIZOLE] ?
[reply] Compound metabolized

[ask] # get_value(readout='Bacterial Biotransformation', item= CC(=O)O[C@]1(C(C)=O)CC[C@H]2[C@@H]3C=C(Cl)C4=CC(=O)[C@@H]5C[C@@H]5[C@]4(C)[C@H]3CC[C@@]21C [CYPROTERONE ACETATE] )
[reply] Compound metabolized

[ask] Field request: Bacterial Biotransformation | item: Cc1cn([C@H]2C[C@H](N=[N+]=[N-])[C@@H](CO)O2)c(=O)[nH]c1=O [ZIDOVUDINE]
[reply] Compound NOT metabolized

[ask] Consider the compound shown here: CCN(CC)C(C)CN1c2ccccc2Sc2ccccc21 (centres undefined) [ETHOPROPAZINE] What is its recorded Bacterial Biotransformation?
[reply] Compound metabolized

[ask] Requested read-out: Bacterial Biotransformation. Entry: CC(C)(Oc1ccc(CCNC(=O)c2ccc(Cl)cc2)cc1)C(=O)O [BEZAFIBRATE]
[reply] Compound metabolized

[ask] Form field: reported Bacterial Biotransformation of CNC(=C[N+](=O)[O-])NCCSCc1csc(CN(C)C)n1 [NIZATIDINE]
[reply] Compound NOT metabolized

[ask] # get_value(readout='Bacterial Biotransformation', item= Cc1nc2n(c(=O)c1CCN1CCC(c3noc4cc(F)ccc34)CC1)CCCC2O (centres undefined) [PALIPERIDONE] )
[reply] Compound NOT metabolized
